Target: USP7, Active human recombinant protein (Homo sapiens, UniProt Q93009)
Construct: purchased CP Lot; 20200225001
Sequence (Q93009 whole entry): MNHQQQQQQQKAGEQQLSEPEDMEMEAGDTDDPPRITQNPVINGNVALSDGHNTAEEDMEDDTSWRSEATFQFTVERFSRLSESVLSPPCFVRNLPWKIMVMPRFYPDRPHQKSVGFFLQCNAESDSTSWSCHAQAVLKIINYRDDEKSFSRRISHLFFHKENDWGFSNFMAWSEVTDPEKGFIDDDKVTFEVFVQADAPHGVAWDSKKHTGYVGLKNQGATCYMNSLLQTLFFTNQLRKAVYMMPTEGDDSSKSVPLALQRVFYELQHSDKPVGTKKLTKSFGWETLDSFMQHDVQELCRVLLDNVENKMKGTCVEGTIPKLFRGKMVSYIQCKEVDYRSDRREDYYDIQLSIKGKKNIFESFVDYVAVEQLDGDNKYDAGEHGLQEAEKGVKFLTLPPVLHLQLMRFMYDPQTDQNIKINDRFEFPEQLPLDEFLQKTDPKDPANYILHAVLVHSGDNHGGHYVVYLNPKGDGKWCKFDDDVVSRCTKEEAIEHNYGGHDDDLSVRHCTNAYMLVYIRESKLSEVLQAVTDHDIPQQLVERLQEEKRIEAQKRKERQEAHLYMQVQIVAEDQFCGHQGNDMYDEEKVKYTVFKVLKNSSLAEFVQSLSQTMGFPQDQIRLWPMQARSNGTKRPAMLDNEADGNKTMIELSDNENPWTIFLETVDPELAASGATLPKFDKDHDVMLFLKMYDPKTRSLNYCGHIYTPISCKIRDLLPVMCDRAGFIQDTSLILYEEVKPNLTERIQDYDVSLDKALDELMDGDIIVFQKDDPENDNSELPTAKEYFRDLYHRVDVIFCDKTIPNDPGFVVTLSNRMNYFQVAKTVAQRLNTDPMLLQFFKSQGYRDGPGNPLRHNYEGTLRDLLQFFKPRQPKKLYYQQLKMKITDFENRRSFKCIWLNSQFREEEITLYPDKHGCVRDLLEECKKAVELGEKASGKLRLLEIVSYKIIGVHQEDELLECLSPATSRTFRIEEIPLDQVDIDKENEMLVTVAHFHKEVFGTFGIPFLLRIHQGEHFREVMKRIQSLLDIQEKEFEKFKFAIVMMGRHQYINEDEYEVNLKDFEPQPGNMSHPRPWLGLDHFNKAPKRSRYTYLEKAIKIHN
Experiment: USP7 assay (Ubiquitin-Rhodamine 110 enzymatic assay)
Assay type: biochemical
Settings: read-out: IC50
value kind: IC50

[
  {
    "molecule": "O=C(CCN1CCNCC1)Nc1ccc2c(=O)n(CC3(O)CCN(C(=O)C(CCCNC(=O)c4ccc5c(Cl)ccnc5c4)Cc4ccccc4)CC3)cnc2c1 (stereo not drawn) [Compound 61]",
    "IC50": "20 to 100 nM"
  }
]

Q. For the molecule CN(C)CCC(=O)Nc1ccc2c(=O)n(CC3(O)CCN(C(=O)[C@@H]4CCN(CCNC(=O)c5ccc6c(Cl)ccnc6c5)C[C@H]4c4ccccc4)CC3)cnc2c1 [Compound 75] , give its measured IC50 value.
A. < 20 nM

Q. For the molecule CN1CCN(CCOc2ccc3c(=O)n(CC4(O)CCN(C(=O)C(CCCNC(=O)c5ccc6c(Cl)ccnc6c5)Cc5ccccc5)CC4)cnc3c2)CC1 (stereo not drawn) [Compound 30] , give its measured IC50 value.
A. 20 to 100 nM

Q. For the molecule CN(C)CCC(=O)Nc1ccc2c(=O)n(CC3(O)CCN(C(=O)C(CCCNc4cccc(-c5cc(Cl)ccn5)c4)Cc4ccccc4)CC3)cnc2c1 (stereo not drawn) [Compound 46] , give its measured IC50 value.
A. > 1000 nM

Q. For the molecule CN(C)CCCOc1ccc2c(=O)n(CC3(O)CCN(C(=O)[C@H](CCCNC(=O)c4ccc5c(Cl)c(F)cnc5c4)Cc4ccccc4)CC3)cnc2c1 [Compound 131] , give its measured IC50 value.
A. 100 to 1000 nM

Q. For the molecule CN(C)CCC(=O)Nc1ccc2c(=O)n(CC3(O)CCN(C(=O)C(CCCNC(=O)c4ccc5c(F)ccnc5c4)Cc4ccccc4)CC3)cnc2c1 (stereo not drawn) [Compound 87] , give its measured IC50 value.
A. < 20 nM

Q. For the molecule CN(C)CCCOc1ccc2c(=O)n(CC3(O)CCN(C(=O)C(Cn4ccc(F)n4)N(C)CCNC(=O)c4ccc5c(Cl)cc(C6CC6)nc5c4)CC3)cnc2c1 (stereo not drawn) , give its measured IC50 value.
A. 100 to 1000 nM

Q. For the molecule CN(C)CCCOc1ccc2c(=O)n(CC3(O)CCN(C(=O)C(Cc4ccccc4)N(C)CCNC(=O)c4ccc5c(Cl)cc(C6CC6)nc5c4)CC3)cnc2c1 (stereo not drawn) , give its measured IC50 value.
A. 100 to 1000 nM

Q. For the molecule CN(C)CCCOc1ccc2c(=O)n(CC3(O)CCN(C(=O)[C@@H](CCCNC(=O)c4ccc5c(Cl)c(CO)cnc5c4)Cc4ccccc4)CC3)cnc2c1 , give its measured IC50 value.
A. < 20 nM

Q. For the molecule CN(C)CCC(=O)Nc1ccc2c(=O)n(CC3(O)CCN(C(=O)c4cn(CCNC(=O)c5ccc6c(Cl)ccnc6c5)nc4Cc4ccccc4)CC3)cnc2c1 [Compound 52] , give its measured IC50 value.
A. 100 to 1000 nM

Q. For the molecule CN1CCN(CC(=O)Nc2ccc3c(=O)n(CC4(O)CCN(C(=O)C(CCCNC(=O)c5ccc6c(Cl)ccnc6c5)Cc5ccccc5)CC4)cnc3c2)CC1 (stereo not drawn) [Compound 29] , give its measured IC50 value.
A. 20 to 100 nM

Q. For the molecule CN1CCN(c2ccc3c(=O)n(CC4(O)CCN(C(=O)[C@H](CCCNC(=O)c5ccc6c(Cl)cc(C7CC7)nc6c5)Cc5ccccc5)CC4)cnc3c2)CC1 [Compound 122] , give its measured IC50 value.
A. 20 to 100 nM

----------
Biological target: USP7, Active human recombinant protein (Homo sapiens)
Construct: purchased CP Lot; 20200225001
Assay: USP7 assay (Ubiquitin-Rhodamine 110 enzymatic assay)
Type: biochemical
Settings: read-out: IC50
value kind: IC50

Completed entries (count: 5):
[
  {
    "compound": "CN(C)CCCOc1ccc2c(=O)n(CC3(O)CCN(C(=O)[C@H](CCCNC(=O)c4ccc5c(Cl)c(C(F)F)cnc5c4)Cc4ccccc4)CC3)cnc2c1",
    "IC50": "< 20 nM"
  },
  {
    "compound": "O=C(NCCCC(Cc1ccccc1)C(=O)N1CCC(O)(Cn2cnc3c(cnn3-c3ccc(F)cc3)c2=O)CC1)c1ccc2c(Cl)ccnc2c1 (stereo not drawn)",
    "IC50": "20 to 100 nM"
  },
  {
    "compound": "CN(C)C1CCN(c2ccc3c(=O)n(CC4(O)CCN(C(=O)[C@H](CCCNC(=O)c5ccc6c(Cl)cc(C7CC7)nc6c5)Cc5ccccc5)CC4)cnc3c2)CC1",
    "IC50": "< 20 nM"
  },
  {
    "compound": "CN(C)CCC(=O)Nc1ccc2c(=O)n(CC3(O)CCN(C(=O)c4cn(CCNC(=O)c5ccc6c(Cl)ccnc6c5)nc4-c4ccccc4)CC3)cnc2c1",
    "IC50": "> 1000 nM"
  },
  {
    "compound": "O=C(NCCCC(Cc1ccccc1)C(=O)N1CCC(O)(Cn2cnc(NCCN3CCCC3)cc2=O)CC1)c1ccc2c(Cl)ccnc2c1 (stereo not drawn)",
    "IC50": "20 to 100 nM"
  }
]

Q. For the compound CN(C)CCCOc1ccc2c(=O)n(CC3(O)CCN(C(=O)C(CCCNC(=O)c4ccc5c(Cl)c6c(nc5c4)C(C)(C)NC6=O)Cc4ccccc4)CC3)cnc2c1 (stereo not drawn) , give its measured IC50 value.
A. > 1000 nM

Q. For the compound CN(C)CCC(=O)Nc1ccc2c(=O)n(CC3(O)CCN(C(=O)C(CCCNC(=O)c4ccc5c(Cl)ccnc5c4)Cc4ccc(F)cc4)CC3)cnc2c1 (stereo not drawn) , give its measured IC50 value.
A. 20 to 100 nM

Q. For the compound O=C(CCn1ccnc1)Nc1ccc2c(=O)n(CC3(O)CCN(C(=O)C(CCCNC(=O)c4ccc5c(Cl)ccnc5c4)Cc4ccccc4)CC3)cnc2c1 (stereo not drawn) , give its measured IC50 value.
A. 100 to 1000 nM

Q. For the compound CN(C)CCC(=O)Nc1ccc2c(=O)n(CC3(O)CCN(C(=O)C(CCCNC(=O)c4ccc5c(Cl)ccnc5c4)Cc4cccnc4)CC3)cnc2c1 (stereo not drawn) , give its measured IC50 value.
A. 100 to 1000 nM

Q. For the compound O=C(CCN1CCNCC1)Nc1ccc2c(=O)n(CC3(O)CCN(C(=O)[C@@H]4CCN(CCNC(=O)c5ccc6c(Cl)ccnc6c5)C[C@H]4c4ccc(C(F)(F)F)cc4)CC3)cnc2c1 , give its measured IC50 value.
A. > 1000 nM

Q. For the compound COc1cc2c(=O)n(CC3(O)CCN(C(=O)[C@H](CCCNC(=O)c4ccc5c(Cl)cc(C6CC6)nc5c4)Cc4ccccc4)CC3)cnc2cc1OCCCN(C)C , give its measured IC50 value.
A. 20 to 100 nM

Q. For the compound CN(C)CCC(=O)Nc1ccc2c(=O)n(CC3(O)CCN(C(=O)C(CCCNC(=O)c4ccc5c(Cl)cc(C(N)=O)nc5c4)Cc4ccccc4)CC3)cnc2c1 (stereo not drawn) , give its measured IC50 value.
A. 100 to 1000 nM

----------
Test: mouse liver microsomal stability (Microsome Assay Protocol)
Assay type: in vitro ADME
Conditions: pH 7.4; mouse liver microsomes, NADPH, 37° C.; read-out: MLM t1/2, min
value kind: half-life at 1 µM
Kindly report the value followed by its unit.

Q. For the compound CN(C)CCCOc1ccc2c(=O)n(CC3(O)CCN(C(=O)C(CCCNC(=O)c4ccc5c(Cl)c6c(nc5c4)CN(C)C6=O)Cc4ccccc4)CC3)cnc2c1 (stereo not drawn) , give its measured half-life at 1 µM value.
A. 11.3 min

Q. For the compound Nc1ccc(-n2ncc3c(=O)n(CC4(O)CCN(C(=O)C(CCCNC(=O)c5ccc6c(Cl)ccnc6c5)Cc5ccccc5)CC4)cnc32)cc1 (stereo not drawn) [Compound 7] , give its measured half-life at 1 µM value.
A. 4.3 min

Q. For the compound CN(C)CCCOc1ccc2c(=O)n(CC3(O)CCN(C(=O)[C@H](CCCNC(=O)c4ccc5c(Cl)c(C(N)=O)cnc5c4)Cc4ccccc4)CC3)cnc2c1 , give its measured half-life at 1 µM value.
A. 46.6 min

----------
Target: USP7, Active human recombinant protein (Homo sapiens, UniProt Q93009)
Construct: purchased CP Lot; 20200225001
Experiment: USP7 assay (Ubiquitin-Rhodamine 110 enzymatic assay)
Type: biochemical
Settings: read-out: IC50
This section presents compounds with their documented IC50 values.

Q. For the compound CN1CCN(CCC(=O)Nc2ccc3c(=O)n(CC4(O)CCN(C(=O)[C@@H](CCCNC(=O)c5ccc6c(Cl)cc(-c7ccc(F)cc7)nc6c5)Cc5ccccc5)CC4)cnc3c2)CC1 , give its measured IC50 value.
A. 100 to 1000 nM

Q. For the compound CN(C)CCCOc1ccc2c(=O)n(CC3(O)CCN(C(=O)C(CCCNC(=O)c4ccc5c(Cl)c(CO)cnc5c4)Cc4ccccc4)CC3)cnc2c1 (stereo not drawn) , give its measured IC50 value.
A. < 20 nM

Q. For the compound Cc1cc(Cl)nc2c(C(=O)NCCCC(Cc3ccccc3)C(=O)N3CCC(O)(Cn4cnc5cc(NC(=O)CCN(C)C)ccc5c4=O)CC3)ccn12 (stereo not drawn) , give its measured IC50 value.
A. > 1000 nM
